test system: L1210; assay: Anti tumor activity against L1210 leukemia in tissue culture and the molar concentration required to reduce the number of L1210 cells; type: functional; settings: Mus musculus, L1210, read-out: ID50
experimentalReadout: pIC50
Remember, pIC50 is on a log scale: it is -log10 of the molar concentration.

In: Dear colleague, I am looking for the recorded pIC50 of the following compound: Nc1nc(N)c2cc(S(=O)(=O)c3ccc4ccccc4c3)ccc2n1
Out: 6.96

* * *

test system: Mus musculus; test: Antimalarial activity against Plasmodium berghei strain in mice (Mus musculus) by parentral route and change in mean survival time in days was determined at 320 mg/kg subcutaneous dose; type: functional
Catalogue of Delta MST readings, one per entry.
Use days as the unit, but write only the number.

Below, 5 molecules whose answers are already recorded.
>>> testresult("Nc1nc(NO)c2cc(Sc3cccc(C(F)(F)F)c3)ccc2n1")
10.3
>>> testresult("CN(N)c1nc(N)nc2ccc(S(=O)(=O)c3ccc4ccccc4c3)cc12")
7.1
>>> testresult("NNc1nc(N)nc2ccc(Sc3cccc(C(F)(F)F)c3)cc12")
11.9
>>> testresult("O=S(=O)(c1ccc2ccccc2c1)c1ccc2nc(NO)nc(NO)c2c1")
8.1
>>> testresult("NNc1nc(N)nc2ccc(S(=O)(=O)c3ccc4ccccc4c3)cc12")
3.5

In: Give the measured Delta MST of CONc1nc(N)nc2ccc(S(=O)(=O)c3ccc4ccccc4c3)cc12 .
Out: 12.7

In: And then ONc1nc(NO)c2cc(Sc3cccc(C(F)(F)F)c3)ccc2n1 , what is it?
Out: 10.7

In: Can you handle Nc1nc(NO)c2cc(S(=O)(=O)c3ccc4ccccc4c3)ccc2n1 next?
Out: 14.1
